Hi there, I'd appreciate the recorded GI50 for every entry that follows.
# System: HCT-116
# Experimental Protocol: NCI tumour cell line growth inhibition, 48 h
Active and inactive are the calls of the source. No stated cut-off is given here; in the data, active = GI50 up to about 1.1 µM and inactive = higher.

Query: Give reported GI50 value for Cc1ccccc1NC(=O)c1c(C)oc2c1C(=O)c1ccccc1C2=O
Response: 32.1 µM (inactive)

Query: Give reported GI50 value for CCOC(=O)C(Cc1cccn1C(=O)OC(C)(C)C)[N+](=O)[O-] (stereo not given)
Response: 20.9 µM (inactive)

Query: Give reported GI50 value for CSc1ccc2c(cc1=O)C(NC(=O)c1ccccc1)CCc1cc(O)c(O)c(O)c1-2 (stereo not given)
Response: 18.5 µM (inactive)

Query: Give reported GI50 value for COc1cc(/C=C(\C#N)C(=O)c2ccccc2)ccc1O
Response: > 100 µM (inactive)

Query: Give reported GI50 value for CN(C)C(=O)C(F)(F)C(c1ccccc1)C1C(=O)N(C)C(=O)N(C)C1=O (stereo not given)
Response: > 100 µM (inactive)

###

# Tested on: CAKI-1
# Experimental Protocol: NCI tumour cell line growth inhibition, 48 h
Activity calls are given as the source filed them. Cut-off read from the data, not from the text of the source: active = GI50 up to about 1.1 µM and inactive = higher.
Form entry, call: pick from active, inactive

Query: Tell me the assay call for C=CC1(CCC(Br)C(C)(C)Cl)CO1 (stereo unspecified) please.
Response: inactive

Query: Tell me the assay call for C1CNCCNCCN1 please.
Response: inactive

Query: Tell me the assay call for NC(=O)C(N)Cc1ccc(O)cn1 (stereo unspecified) please.
Response: inactive

Query: Tell me the assay call for Oc1ccc(C(O)(c2ccccc2)c2ccccc2)c2ccccc12 please.
Response: inactive

Query: Tell me the assay call for [O-][n+]1c2cc(CBr)c(CBr)cc2[n+]([O-])c2c(O)cccc21 please.
Response: inactive

Query: Tell me the assay call for O=C(Nc1ccccc1)c1cc(S(=O)(=O)Nc2n[nH]c(=O)[nH]2)c(SSc2cc(Cl)c(C(=O)Nc3ccccc3)cc2S(=O)(=O)Nc2n[nH]c(=O)[nH]2)cc1Cl please.
Response: inactive

Query: Tell me the assay call for c1ccc(CN(Cn2cccn2)Cn2cccn2)nc1 please.
Response: inactive

Query: Tell me the assay call for CCN(CC)C(=S)SC(C(=O)Nc1nnc(-c2ccccc2)o1)c1ccccc1 (stereo unspecified) please.
Response: inactive

Query: Tell me the assay call for CN(CCNC(=O)c1cn(C)c2c1ccc1cc(Cl)ccc12)CCNC(=O)c1cn(C)c2c1ccc1cc(Cl)ccc12 please.
Response: inactive

Query: Tell me the assay call for CCOn1cc(C[C@@]2(O)C(=O)OC3[C@@H](O)CO[C@@]32O)c2ccccc21 (stereo partly specified) please.
Response: inactive

Query: Tell me the assay call for C=CC[C@]1(C2=NC(C)(C)CO2)c2ccccc2-c2ccccc2[C@H]1C(C)=O please.
Response: inactive

Query: Tell me the assay call for COc1cc(/C=C(\C#N)C(=O)c2ccccc2)ccc1O please.
Response: inactive

Query: Tell me the assay call for CC1(c2ccc[n+](Cc3ccccc3)c2)OCCO1 please.
Response: inactive

Query: Tell me the assay call for COc1ccc2oc(-c3ccc(OC)c(OC)c3OC)cc(=O)c2c1 please.
Response: inactive

Query: Tell me the assay call for CCOc1ccc(/N=N/c2ccc3oc(=O)c(/C(C)=N\NC(=O)CC(=O)Nc4ccc(Cl)cc4)cc3c2)cc1 please.
Response: inactive

Query: Tell me the assay call for C=C1c2nc3ccccc3n2C=C(c2ccc(C)cc2)N1c1ccccc1 please.
Response: inactive

Query: Tell me the assay call for Cc1c(C(=O)OCc2ccccc2)[n+]([O-])c2ccccc2[n+]1[O-] please.
Response: inactive

Query: Tell me the assay call for Cc1cc2nc3c(N)nn(CCCN(C)C)c3nc2cc1C please.
Response: inactive

Query: Tell me the assay call for O=C1C=C(Nc2ccc(S(=O)(=O)Nc3ncccn3)cc2)c2ccccc2C1=O please.
Response: inactive

Query: Tell me the assay call for O=c1[nH]nc(-c2ccccc2)c(-c2ccccc2)c1-n1nc(-c2ccccc2)c2ccccc2c1=O please.
Response: inactive

Query: Tell me the assay call for CC1=C2C(=O)C(C)(C)C=C2C(=O)[C@](C)(O)C12CC2 [DEHYDROILLUDIN M] please.
Response: active
